Values compiled from patent US12091425B2.

Assign pIC50 to each entry below.
molecular target: Mcl-1/Bim interaction, recombinant human Mcl-1 (171-327) (Homo sapiens, UniProt Q07820); construct: made in house; experiment: Cell free Mcl-1: Bim Affinity Assay (Mcl-1 HTRF); type: binding; details: TR-FRET, 0.1 nM Mcl-1 (171-327), 0.05 nM biotin-Bim (51-76)
Sequence (Q07820 171-327): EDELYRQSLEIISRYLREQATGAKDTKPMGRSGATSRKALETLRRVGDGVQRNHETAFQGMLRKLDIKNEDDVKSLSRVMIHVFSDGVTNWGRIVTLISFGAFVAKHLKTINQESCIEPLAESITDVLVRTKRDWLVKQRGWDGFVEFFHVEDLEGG
To interpret pIC50, take it as minus log10 of a concentration measured in moles per litre.

Asked: Request the reported pIC50 associated with CC[C@@H]1CC/C=C/[C@H](OCCO[C@H]2CCCCO2)[C@@H]2CC[C@H]2CN2C[C@@]3(CCCc4cc(Cl)ccc43)COc3ccc(cc32)C(=O)NS1(=O)=O (mixture of isomers)
Given back: 8.54

Asked: // pIC50 lookup, key: C[C@H]1/C=C/[C@H](O)[C@@H]2CC[C@H]2CN2C[C@@]3(CCCc4cc(Cl)ccc43)COc3ccc(cc32)C(=O)NS(=O)(=O)[C@@H](C)C1 (single isomer, unassigned)
Given back: 8.04

Asked: # pIC50 lookup, item O=C1NS(=O)(=O)[C@H]2CCCC[C@@H]2CCC[C@H](O)[C@@H]2CC[C@H]2CN2C[C@@]3(CCCc4cc(Cl)ccc43)COc3ccc1cc32 (single isomer, unassigned)
Given back: 8.16

Asked: For the compound shown here, O=C1NS(=O)(=O)[C@@H]2C[C@H](O)C[C@H]2C/C=C/[C@H](O)[C@@H]2CC[C@H]2CN2C[C@@]3(CCCc4cc(Cl)ccc43)COc3ccc1cc32 (single isomer, unassigned) , give the reported pIC50.
Given back: 9.58

Asked: Entry under review: O=C1NS(=O)(=O)C(CO)CCC=CCC2CCC2CN2CC3(CCCc4cc(Cl)ccc43)COc3ccc1cc32 (single isomer, unassigned) . Reported pIC50?
Given back: 8.17

Asked: I'd like to know its pIC50. The compound in question is O=C(O)CO[C@@H]1/C=C/CCCS(=O)(=O)NC(=O)c2ccc3c(c2)N(C[C@@H]2CC[C@H]21)C[C@@]1(CCCc2cc(Cl)ccc21)CO3
Given back: 9.67

Asked: Please report the recorded pIC50 for CC[C@@H]1C[C@@H](C)/C=C/[C@H](OCCN2CCOCC2)[C@@H]2CC[C@H]2CN2C[C@@]3(CCCc4cc(Cl)ccc43)COc3ccc(cc32)C(=O)NS1(=O)=O .
Given back: 8.95

Asked: Which pIC50 value is on record for CC[C@@H]1CC/C=C/[C@H](OCC(=O)NC)[C@@H]2CC[C@H]2CN2C[C@@]3(CCCc4cc(Cl)ccc43)COc3ccc(cc32)C(=O)NS1(=O)=O ?
Given back: 9.15

Asked: I'd like to know its pIC50. The compound in question is C[C@]12CC[C@H]1CN1C[C@@]3(CCCc4cc(Cl)ccc43)COc3ccc(cc31)C(=O)NS(=O)(=O)CCCCC[C@@H]2O (single isomer, unassigned) [Example 121]
Given back: 7.91

Asked: Recorded pIC50 for COCC(C)OC1C=CCCC(C)S(=O)(=O)NC(=O)c2ccc3c(c2)N(CC2CCC21)CC1(CCCc2cc(Cl)ccc21)CO3 (mixture of isomers) , please?
Given back: 8.91

Asked: Returns the measured pIC50 for the input compound. Input: CCC(OC1C=CCCC(C)S(=O)(=O)NC(=O)c2ccc3c(c2)N(CC2CCC21)CC1(CCCc2cc(Cl)ccc21)CO3)C(=O)N(C)C (single isomer, unassigned)
Given back: 9.48

Asked: Which pIC50 value is on record for C[C@@H]1[C@@H](C)C/C=C/[C@H](OCCN(C)c2ccccn2)[C@@H]2CC[C@H]2CN2C[C@@]3(CCCc4cc(Cl)ccc43)COc3ccc(cc32)C(=O)NS1(=O)=O ?
Given back: 9.16

Asked: Fill in the blank: the reported pIC50 of C[C@H]1[C@H](C)/C=C/[C@H](O)[C@@H]2CC[C@H]2CN2C[C@@]3(CCCc4cc(Cl)ccc43)COc3ccc(cc32)C(=O)NS(=O)(=O)[C@@H]1C (single isomer, unassigned) is ____.
Given back: 9.11

Asked: // lookup pIC50 for COC(=O)CN1CC/C=C/[C@H](O)[C@@H]2CC[C@H]2CN2C[C@@]3(CCCc4cc(Cl)ccc43)COc3ccc(cc32)C(=O)NS1(=O)=O
Given back: 9.21

Asked: Look up pIC50 for this compound: O=C1NS(=O)(=O)NCC/C=C/[C@H](O)[C@@H]2CC[C@H]2CN2C[C@@]3(CCCc4cc(Cl)ccc43)COc3ccc1cc32
Given back: 9.31
